TGI values for the compounds below.
Test system: HOP-92 NSCLC
Measurement protocol: NCI tumour cell line growth inhibition, 48 h
Measured parameter: TGI

                                   compound  measured_parameter  result_value
0  CCCCCCCCCCCCOC1C(C(CC(=O)N2CCN(Cc3ccc4c(c3)OCO4)CC2)NS(=O)(=O)c2cc(Cl)cc(Cl)c2)OC2OC(C)(C)OC21 (stereo not drawn)                 TGI     > 62.8 µM
1  COC(=O)C(NC(=O)c1ccccc1)C(c1c(O)cc(O)cc1O)P(=O)(OC)OC (stereo not drawn)                 TGI      > 100 µM
2            CCOC(=O)c1c(-c2ccccc2)c(C)cn1C                 TGI       > 10 µM
